Molecular target: Listeriolysin regulatory protein (Listeria monocytogenes serovar 1/2a (strain ATCC BAA-679 / EGD-e))
Sequence (whole entry): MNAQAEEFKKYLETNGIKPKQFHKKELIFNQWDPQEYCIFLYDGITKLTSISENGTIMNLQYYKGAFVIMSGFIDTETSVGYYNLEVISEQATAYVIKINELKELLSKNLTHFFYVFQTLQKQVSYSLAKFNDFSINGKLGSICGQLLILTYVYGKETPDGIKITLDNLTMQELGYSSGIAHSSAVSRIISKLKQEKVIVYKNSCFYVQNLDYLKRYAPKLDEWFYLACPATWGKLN
Test: Binding affinity to GFP expressing Listeria monocytogenes EGD-e PrfA expressed in Escherichia coli assessed as inhibition of bacterial uptake in human Caco2 cells at 20 uM incubated for 4 hrs by flow cytometric method relative to (R)-8-cyclopropyl-7-(naphthalen-1-ylmethyl)-5-oxo-3,5-dihydro-2H-thiazolo[3,2-a]pyridine-3-carboxylic acid
Classification by fold change (FC) | ranges: LOW: < 3; MID: ≥ 3 and < 5; HIGH: ≥ 5

INPUT: Given C=CCOc1c(Cc2cccc3ccccc23)cc(=O)n2c1SCC2C(=O)O (racemic) , name the class its fold change (FC) places it in.
OUTPUT: MID

INPUT: Given CCc1cc(=O)n2c(c1N(C)C)SCC2C(=O)O (racemic) , name the class its fold change (FC) places it in.
OUTPUT: HIGH

INPUT: Given Cc1ccc(Cc2cc(=O)n3c(c2C2CC2)SC[C@H]3C(=O)O)c2ccccc12 , name the class its fold change (FC) places it in.
OUTPUT: LOW

INPUT: Given CC(C)COc1c(Cc2cccc3ccccc23)cc(=O)n2c1SCC2C(=O)O (racemic) , name the class its fold change (FC) places it in.
OUTPUT: MID

INPUT: Given COC(=O)Nc1c(Cc2cccc3ccccc23)cc(=O)n2c1SCC2C(=O)O (racemic) , name the class its fold change (FC) places it in.
OUTPUT: HIGH

INPUT: Given CN(C)c1c(Cc2cccc3ccccc23)cc(=O)n2c1SCC2C(=O)O.Cl (racemic) , name the class its fold change (FC) places it in.
OUTPUT: LOW
